Where these numbers come from: patent US20190194347A1

# experimental-target: endogenous human HER3 on human cancer cells (SK-Br-3, MCF7, BT-474) (human, UniProt P21860 20-1342)
# procedure-text: cell-based or functional assay
Recorded % inhibition of proliferation, BT-474, 10 µg/ml IgG, one value per entry.
endpoint-label: % inhibition of proliferation, BT-474, 10 µg/ml IgG (%)

binder | unit-text | observed-measurement
MOR10701 (antibody, human IgG1, kappa, V domains shown) VH: EVQLLESGGGLVQPGGSLRLSCAASGFTFSSYAMSWVRQAPGKGLEWVSVTGAVGRSTYYPDSVKGRFTISRDNSKNTLYLQMNSLRAEDTAVYYCARWGDEGFDIWGQGTLVTVSS VL: DIQMTQSPSSLSASVGDRVTITCRASQGISNWLAWYQQKPGKAPKLLIYGASSLQSGVPSRFSGSGSGTDFTLTISSLQPEDFATYYCQQYSSFPTTFGQGTKVEIKR | % | 43.6
MOR10703 (antibody, human IgG1, kappa, V domains shown) VH: EVQLLESGGGLVQPGGSLRLSCAASGFTFSSYAMSWVRQAPGKGLEWVSAINSQGKSTYYADSVKGRFTISRDNSKNTLYLQMNSLRAEDTAVYYCARWGDEGFDIWGQGTLVTVSS VL: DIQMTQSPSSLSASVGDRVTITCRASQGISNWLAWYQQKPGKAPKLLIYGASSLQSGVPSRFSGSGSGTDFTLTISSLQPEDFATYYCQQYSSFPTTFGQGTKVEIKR | % | 41.6
MOR10702 (antibody, human IgG1, kappa, V domains shown) VH: EVQLLESGGGLVQPGGSLRLSCAASGFTFSSYAMSWVRQAPGKGLEWVSVISAWGHVKYYADSVKGRFTISRDNSKNTLYLQMNSLRAEDTAVYYCARWGDEGFDIWGQGTLVTVSS VL: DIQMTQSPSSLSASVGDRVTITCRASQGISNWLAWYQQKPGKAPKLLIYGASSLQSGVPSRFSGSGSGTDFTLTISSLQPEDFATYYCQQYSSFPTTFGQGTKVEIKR | % | 43.8
